Measured Solubility in acetone by item
assay-details: Solubility (15° C.)
Format: physicochemical
experimental-parameters: acetone

CC(C)(N=NC(C)(C)C(=O)NCc1ccncc1)C(=O)NCc1ccncc1 ... ≤ 1%

## Task Annotate the compound CC(C)(N=NC(C)(C)C(=O)NCc1ccc(Cl)cc1)C(=O)NCc1ccc(Cl)cc1 with its measured Solubility in acetone.
## Result ≥ 10%

## Task Annotate the compound CC(C)(N=NC(C)(C)C(=O)NCCN1CCNCC1)C(=O)NCCN1CCNCC1 with its measured Solubility in acetone.
## Result ≤ 1%

---

assay-details: Solubility (15° C.)
Assay type: physicochemical
experimental-parameters: methanol
measured-quantity: Solubility in methanol

# example entries with known answers
CC(C)(N=NC(C)(C)C(=O)NCC1CCNCC1)C(=O)NCC1CCNCC1 [Compound (6)] ... ≥ 10%
CC(C)(N=NC(C)(C)C(=O)NCc1ccncc1)C(=O)NCc1ccncc1 [Compound (5)] ... ~9%
CC(C)(N=NC(C)(C)C(=O)NCc1cccnc1)C(=O)NCc1cccnc1 [Compound (4)] ... ≥ 10%
CC(C)(N=NC(C)(C)C(=O)NCCN1CCNCC1)C(=O)NCCN1CCNCC1 [Compound (7)] ... ≥ 10%
CC(C)(N=NC(C)(C)C(=O)NCc1ccc(Cl)cc1)C(=O)NCc1ccc(Cl)cc1 [Compound (3)] ... ~5%

## Task Annotate the compound C=CCNC(=O)C(C)(C)N=NC(C)(C)C(=O)NCC=C [Compound (2)] with its measured Solubility in methanol.
## Result ≥ 10%

---

Measured solubility by item
assay-details: Solubility (15° C.)
Assay type: physicochemical
experimental-parameters: water

CC(C)(N=NC(C)(C)C(=O)NCc1ccc(Cl)cc1)C(=O)NCc1ccc(Cl)cc1 [Compound (3)] ... ≤ 10000 µg/mL
C=CCNC(=O)C(C)(C)N=NC(C)(C)C(=O)NCC=C [Compound (2)] ... ≤ 10000 µg/mL
CC(C)(N=NC(C)(C)C(=O)NCC1CCNCC1)C(=O)NCC1CCNCC1 [Compound (6)] ... ≥ 100000 µg/mL
CC(C)(N=NC(C)(C)C(=O)NCCN1CCNCC1)C(=O)NCCN1CCNCC1 [Compound (7)] ... ≥ 100000 µg/mL
CC(C)(N=NC(C)(C)C(=O)NCc1ccncc1)C(=O)NCc1ccncc1 [Compound (5)] ... ≤ 10000 µg/mL

## Task Annotate the compound CC(C)(N=NC(C)(C)C(=O)NCc1cccnc1)C(=O)NCc1cccnc1 [Compound (4)] with its measured solubility.
## Result ≤ 10000 µg/mL

---

assay-details: Solubility (15° C.)
Type: physicochemical
experimental-parameters: dimethylformamide (DMF)
measured-quantity: Solubility in DMF (%)

CC(C)(N=NC(C)(C)C(=O)NCCN1CCNCC1)C(=O)NCCN1CCNCC1 ... 1.5

(1) CC(C)(N=NC(C)(C)C(=O)NCc1cccnc1)C(=O)NCc1cccnc1
(2) CC(C)(N=NC(C)(C)C(=O)NCc1ccncc1)C(=O)NCc1ccncc1
## Task // which entry has the larger Solubility in DMF value, 1 or 2 ? Answer format: the label of the selected item.
## Result 2

---

assay-details: Solubility (15° C.)
Type: physicochemical
experimental-parameters: acetone
measured-quantity: Solubility in acetone

CC(C)(N=NC(C)(C)C(=O)NCC1CCNCC1)C(=O)NCC1CCNCC1 [Compound (6)] ... ≤ 1%
CC(C)(N=NC(C)(C)C(=O)NCc1cccnc1)C(=O)NCc1cccnc1 [Compound (4)] ... 3%

## Task Annotate the compound C=CCNC(=O)C(C)(C)N=NC(C)(C)C(=O)NCC=C [Compound (2)] with its measured Solubility in acetone.
## Result ≥ 10%
